Origin of measurements: patent US5250542A

Molecular target: opioid receptor (Mus musculus, UniProt P42866)
Construct: Five CF-1 male mice (Charles River, Portage, Mich.); from tissue; host or cells: living CF-1 male mice (in vivo test; endogenous receptor)
Sequence (P42866 whole entry): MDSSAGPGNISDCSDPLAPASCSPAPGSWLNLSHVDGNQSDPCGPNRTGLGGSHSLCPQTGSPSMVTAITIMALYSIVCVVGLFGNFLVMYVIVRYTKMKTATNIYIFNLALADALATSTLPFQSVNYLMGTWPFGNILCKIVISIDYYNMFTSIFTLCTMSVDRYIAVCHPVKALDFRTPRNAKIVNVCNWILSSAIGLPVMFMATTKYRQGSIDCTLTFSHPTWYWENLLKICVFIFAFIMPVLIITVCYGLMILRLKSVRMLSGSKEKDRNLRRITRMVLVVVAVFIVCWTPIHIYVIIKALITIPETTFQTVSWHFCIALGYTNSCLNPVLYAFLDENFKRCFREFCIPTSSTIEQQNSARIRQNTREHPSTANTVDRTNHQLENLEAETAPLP
Experiment: mouse writhing analgesis test: block of morphine-induced analgesia
Type: in vivo, CF-1 male mice
Parameters: unit not given here
Conditions: dose of antagonist that reduced the inhibition of writhing produced by 1.25 mg/kg morphine sulfate to 50%; subcutaneous, 20 min before acetic acid
Where a name gives a salt, the structure may show the parent alone.
Rule: measured AD50 below 4 gets satisfied; anything equal to or greater than 4 gets not satisfied.

Reference set, count: 3
[
  {
    "compound": "COc1cccc([C@]2(C)CCN(CC(Cc3ccccc3)C(=O)O)C[C@@H]2C)c1 (single isomer, unassigned) [Example 79]",
    "labelValue": "satisfied"
  },
  {
    "compound": "C[C@H]1CN(CC(Cc2ccccc2)C(=O)NCC(=O)OCc2ccccc2)CC[C@@]1(C)c1cccc(O)c1 (stereo partly drawn) [Example 55, hydrochloride]",
    "labelValue": "not satisfied"
  },
  {
    "compound": "C[C@H]1CN(CC(Cc2ccccc2)C(=O)NCC(=O)OCC(=O)NCc2ccccc2)CC[C@@]1(C)c1cccc(O)c1 (relative stereo) [Example 93]",
    "labelValue": "not satisfied"
  }
]

Prompt: Answer whether the compound CNC(=O)CCCNC(=O)C(CC1CCCCC1)CN1CC[C@@](C)(c2cccc(O)c2)[C@@H](C)C1 (stereo partly drawn) [Example 41, monohydrochloride] has AD50 strictly less than 4
Response: not satisfied

Prompt: Answer whether the compound CCOC(=O)CNC(=O)C(Cc1ccccc1)CN1CC[C@@](C)(c2cccc(OC)c2)[C@@H](C)C1 (single isomer, unassigned) [Example 81] has AD50 strictly less than 4
Response: not satisfied

* * *

Molecular target: peripheral opioid receptors (Mus musculus)
Construct: Mice maintained (6 mice/cage) on 0.01M saccharin water with 1 g/1 morphine sulfate; from tissue; host or cells: living morphine-maintained mice (in vivo test; endogenous receptor)
Assay: precipitated diarrhea in morphine-maintained mice (peripheral opioid activity) and comparison with the writhing test
Format: in vivo
Conditions: mouse, 0.5 h, morphine-maintained mice; antagonist subcutaneous or oral; 30 min observation
Structures can show the parent of a compound that is named as a salt.
Items are presented alongside their recorded ED50.
Use mg/kg as the unit, but write only the number.

[
  {
    "molecule": "C[C@H]1CN(CCC(C(=O)O)c2ccccc2)CC[C@@]1(C)c1cccc(O)c1 (relative stereo) [Example 8B, hydrochloride]",
    "ED50 [mg/kg]": 0.012
  },
  {
    "molecule": "CCOC(=O)CCNC(=O)C(CC1CCCCC1)CN1CC[C@@](C)(c2cccc(O)c2)[C@@H](C)C1 (stereo partly drawn) [Example 36, monohydrochloride]",
    "ED50 [mg/kg]": 0.32
  },
  {
    "molecule": "CCNC(=O)CNC(=O)CNC(=O)C(Cc1ccccc1)CN1CC[C@@](C)(c2cccc(O)c2)[C@@H](C)C1 (relative stereo)",
    "ED50 [mg/kg]": 1.31
  },
  {
    "molecule": "CCNC(=O)CCCNC(=O)C(Cc1ccccc1)CN1CC[C@@](C)(c2cccc(O)c2)[C@@H](C)C1 (stereo partly drawn) [Example 64, monohydrochloride]",
    "ED50 [mg/kg]": 0.9
  },
  {
    "molecule": "Cc1oc(=O)oc1COC(=O)CNC(=O)C(Cc1ccccc1)CN1CC[C@@](C)(c2cccc(O)c2)[C@@H](C)C1 (relative stereo)",
    "ED50 [mg/kg]": 0.19
  },
  {
    "molecule": "C[C@H]1CN(CCC(C(=O)NCC(=O)O)C2CCCCC2)CC[C@@]1(C)c1cccc(O)c1 (relative stereo) [Example 27, monohydrate]",
    "ED50 [mg/kg]": 0.3
  }
]

Prompt: Please look at this molecule and report its ED50: C[C@H]1CN(CC(Cc2ccccc2)C(=O)NCCCC(N)=O)CC[C@@]1(C)c1cccc(O)c1 (stereo partly drawn) [Example 63, monohydrochloride]
Response: 0.29

Prompt: Please look at this molecule and report its ED50: C[C@H]1CN(CC(Cc2ccccc2)C(=O)NCC(=O)OC2CCCCC2)CC[C@@]1(C)c1cccc(O)c1 (stereo partly drawn) [Example 52, monohydrochloride]
Response: 0.2

Prompt: Please look at this molecule and report its ED50: CCNC(=O)CNC(=O)C(CC1CCCCC1)CN1CC[C@@](C)(c2cccc(O)c2)[C@@H](C)C1 (relative stereo) [Example 31, monohydrochloride monohydrate]
Response: 0.14

Prompt: Please look at this molecule and report its ED50: C[C@@H]1CN(CC(Cc2ccccc2)C(=O)NCC(=O)O)CC[C@]1(C)c1cccc(O)c1 (single isomer, unassigned) [Example 98E]
Response: 0.1

Prompt: Please look at this molecule and report its ED50: CNC(=O)CNC(=O)C(CCN1CC[C@@](C)(c2cccc(O)c2)[C@@H](C)C1)C1CCCCC1 (relative stereo) [Example 21, hydrochloride]
Response: 0.16

Prompt: Please look at this molecule and report its ED50: C[C@H]1CN(CC(Cc2ccccc2)C(=O)NCC(=O)OCC(=O)NCc2ccccc2)CC[C@@]1(C)c1cccc(O)c1 (relative stereo)
Response: 0.008

* * *

Molecular target: mu receptor (Rattus norvegicus, UniProt P33535)
Construct: rat whole brain minus cerebellum for mu was homogenized; from tissue; host or cells: brain of male Sprague Dawley rats, whole brain minus cerebellum, homogenate fraction
Sequence (P33535 whole entry): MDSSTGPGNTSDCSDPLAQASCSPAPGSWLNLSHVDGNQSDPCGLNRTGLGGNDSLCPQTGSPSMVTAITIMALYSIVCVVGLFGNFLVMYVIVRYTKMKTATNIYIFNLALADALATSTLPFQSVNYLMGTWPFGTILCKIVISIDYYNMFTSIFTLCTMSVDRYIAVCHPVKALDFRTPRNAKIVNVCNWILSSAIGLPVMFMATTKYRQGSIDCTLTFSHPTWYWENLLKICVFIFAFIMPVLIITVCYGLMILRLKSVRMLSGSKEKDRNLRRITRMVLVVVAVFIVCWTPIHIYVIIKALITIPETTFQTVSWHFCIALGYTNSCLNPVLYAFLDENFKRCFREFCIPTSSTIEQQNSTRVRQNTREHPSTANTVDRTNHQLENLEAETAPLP
Experiment: opioid receptor binding assay, [3H] NAL (tritiated naloxone), mu receptor
Parameters: species or system rat (Male Sprague Dawley), brain minus cerebellum
Structures can show the parent of a compound that is named as a salt.
Items are presented alongside their recorded Ki.
Use nM as the unit, but write only the number.

These solved cases illustrate the format of a correct answer.
[
  {
    "compound": "CCOC(=O)CNC(=O)C(Cc1ccccc1)CN1CC[C@@](C)(c2cccc(O)c2)[C@@H](C)C1 (stereo partly drawn) [Example 43, hydrochloride]",
    "Ki, nM": 0.64
  },
  {
    "compound": "C[C@H]1CN(CCC(C(=O)NCC(N)=O)c2ccccc2)CC[C@@]1(C)c1cccc(O)c1 (relative stereo) [Example 14, monohydrochloride monohydrate]",
    "Ki, nM": 6.42
  }
]

Please look at the following compound next.
Prompt: System mu receptor (Rattus norvegicus, UniProt P33535). Read-out Ki. Item C[C@H]1CN(CCC(C(=O)NCCC(N)=O)C2CCCCC2)CC[C@@]1(C)c1cccc(O)c1 (relative stereo) [Example 17, monohydrochloride] . Report value.
Response: 0.43

* * *

Target: mu receptor (Rattus norvegicus, UniProt P33535)
Construct: rat whole brain minus cerebellum for mu was homogenized; from tissue; host or cells: brain of male Sprague Dawley rats, whole brain minus cerebellum, homogenate fraction
Test: opioid receptor binding assay, [3H] NAL (tritiated naloxone), mu receptor
Set-up: species or system rat (Male Sprague Dawley), brain minus cerebellum
Settings: 20 min, read-out: % displacement at 100 nM, 100 nM test compound; [3H] naloxone 0.5 nM
Structures can show the parent of a compound that is named as a salt.
Items are presented alongside their recorded inhibition at 0.1 µM.
Use % as the unit, but write only the number.

These solved cases illustrate the format of a correct answer.
[
  {
    "compound": "CCCNC(=O)CNC(=O)C(Cc1ccccc1)CN1CC[C@@](C)(c2cccc(O)c2)[C@@H](C)C1 (stereo partly drawn) [Example 49, monohydrate hydrochloride]",
    "quantitativeReadout": 100
  },
  {
    "compound": "C[C@H]1CN(CC(CC2CCCCC2)C(=O)NCCC(=O)O)CC[C@@]1(C)c1cccc(O)c1 (stereo partly drawn) [Example 35, hydrochloride]",
    "quantitativeReadout": 100
  },
  {
    "compound": "CCOC(=O)CNC(=O)CNC(=O)C(Cc1ccccc1)CN1CC[C@@](C)(c2cccc(O)c2)[C@@H](C)C1 (relative stereo) [Example 67, monohydrochloride]",
    "quantitativeReadout": 91
  },
  {
    "compound": "C[C@H]1CN(CC(CC2CCCCC2)C(=O)NCCCC(N)=O)CC[C@@]1(C)c1cccc(O)c1 (stereo partly drawn) [Example 40, hydrochloride]",
    "quantitativeReadout": 100
  },
  {
    "compound": "C[C@H]1CN(CC(Cc2ccccc2)C(=O)NCC(=O)N(C)C)CC[C@@]1(C)c1cccc(O)c1 (stereo partly drawn) [Example 47, monohydrochloride monohydrate]",
    "quantitativeReadout": 95
  },
  {
    "compound": "CNC(=O)CNC(=O)C(CCN1CC[C@@](C)(c2cccc(O)c2)[C@@H](C)C1)c1ccccc1 (relative stereo) [Example 13, monohydrochloride]",
    "quantitativeReadout": 95
  }
]

Prompt: Please look at this compound and report its inhibition at 0.1 µM: C[C@H]1CN(CCC(C(=O)NCC(N)=O)c2ccccc2)CC[C@@]1(C)c1cccc(O)c1 (relative stereo) [Example 14, monohydrochloride monohydrate]
Response: 93

Prompt: Please look at this compound and report its inhibition at 0.1 µM: CCOC(=O)C(CCN1CC[C@@](C)(c2cccc(O)c2)[C@@H](C)C1)c1ccccc1 (relative stereo) [Example 8A, hydrochloride]
Response: 95

Prompt: Please look at this compound and report its inhibition at 0.1 µM: CNC(=O)CCCNC(=O)C(CCN1CC[C@@](C)(c2cccc(O)c2)[C@@H](C)C1)C1CCCCC1 (relative stereo) [Example 24, monohydrochloride monohydrate]
Response: 100
